# System: Caco-2 bidirectional permeability, LC-MS/MS efflux ratio
# experiment: Inhibitors of HPGD: Efflux Ratio Profiling
# protocol_conditions: hits give low values
measured_parameter: efflux ratio

>>> print(df.to_string())
                         compound_structure  numeric_result
0     Cc1cc(-c2nnc3n2CCCCC3)c(C)n1-c1ccccc1              21
1  Cc1cccc(-n2cnc3cc(C(=O)N4CCCCC4)ccc32)c1              15
